Sourced from paper PMC8562373

Each entry below carries its recorded Kd.
Target: SARS-CoV-2 protein S receptor-binding domain (RBD), original Wuhan strain (SARS-CoV-2, UniProt P0DTC2 331-524)
Assay: MST
quantity_measured: Kd

1. DKWSAFLKECSTIAQIYPLQEI [h2-Cys peptide (h2 with Gln76 replaced with Cys76)] | > 1000 µM
2. IEEQAKTFLDKFNHQAEDLFYK [h1-Mpa peptide (h1 with Lys31 modified with 3-mercaptopropionic acid)] | > 1000 µM
